Data origin: paper PMC5292684

Target: bacteriophage T5 empty expanded capsid (without pb10) (bacteriophage T5)
Sequence (Q6QGD8 160-458 limits assumed, chain 1 of 2): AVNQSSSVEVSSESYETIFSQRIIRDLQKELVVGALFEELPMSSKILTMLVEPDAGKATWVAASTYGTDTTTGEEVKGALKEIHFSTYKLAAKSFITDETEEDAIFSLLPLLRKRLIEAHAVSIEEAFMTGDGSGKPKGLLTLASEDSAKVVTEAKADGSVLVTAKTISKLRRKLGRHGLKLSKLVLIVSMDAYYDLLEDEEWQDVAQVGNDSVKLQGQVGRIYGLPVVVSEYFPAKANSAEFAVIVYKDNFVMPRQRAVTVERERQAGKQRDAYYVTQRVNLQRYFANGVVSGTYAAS
Sequence (Q6QGD5 11-403 limits assumed, chain 2 of 2, further chain): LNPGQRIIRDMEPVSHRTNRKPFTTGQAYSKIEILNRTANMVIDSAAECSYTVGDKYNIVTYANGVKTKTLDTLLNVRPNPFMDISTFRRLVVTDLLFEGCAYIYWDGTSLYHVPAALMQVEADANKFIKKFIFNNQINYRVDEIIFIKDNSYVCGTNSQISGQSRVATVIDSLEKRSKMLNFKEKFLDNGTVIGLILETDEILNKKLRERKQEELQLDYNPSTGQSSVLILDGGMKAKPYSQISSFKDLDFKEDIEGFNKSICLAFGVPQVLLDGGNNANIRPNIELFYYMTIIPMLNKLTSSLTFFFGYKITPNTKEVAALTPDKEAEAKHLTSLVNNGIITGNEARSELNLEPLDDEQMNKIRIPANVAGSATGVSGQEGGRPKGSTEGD
Assay: SPR; T200, 25 °C, PBS (137 mM NaCl) with 1 mg/mL BSA; expanded capsids captured on a CM5 chip through immobilised rabbit anti-capsid antibodies; pb10 variants 0.09 to 40 nM injected at 50 uL/min; koff set at 2 x 10^-4 s^-1 for all proteins; global fit to a Langmuir mass transport-limited model
PROPERTY MEASURED: pKd
The value called pKd is obtained by taking minus log10 of the concentration in mol/L.

Check out these entries, answers already filled in.
BINDER	pKd
pb10 F36A-R38E (natural protein) MIDYSGLRTIFGEKLPESHIFFATVAAHKYVPSYAALERELGLSSAHTNRKVWKKFVEAYGKAIPPAPPAPPLTLSKDLTASMSVEEGAALTLSVTATGGTGPYTYAWTKDGSPIPDASGATYTKPTAAAEDAGSYKVTVTDSKQVSKDSTTCAVTVNPTVPGG	10.99
pb10 R38E (natural protein) MIDYSGLRTIFGEKLPESHIFFATVAAHKYVPSYAFLERELGLSSAHTNRKVWKKFVEAYGKAIPPAPPAPPLTLSKDLTASMSVEEGAALTLSVTATGGTGPYTYAWTKDGSPIPDASGATYTKPTAAAEDAGSYKVTVTDSKQVSKDSTTCAVTVNPTVPGG	11.63
pb10 F36A (natural protein) MIDYSGLRTIFGEKLPESHIFFATVAAHKYVPSYAALRRELGLSSAHTNRKVWKKFVEAYGKAIPPAPPAPPLTLSKDLTASMSVEEGAALTLSVTATGGTGPYTYAWTKDGSPIPDASGATYTKPTAAAEDAGSYKVTVTDSKQVSKDSTTCAVTVNPTVPGG	12.64

Next binder, please.
Report pKd, nothing else, for this binder: pb10 F36A-R38A (natural protein) MIDYSGLRTIFGEKLPESHIFFATVAAHKYVPSYAALARELGLSSAHTNRKVWKKFVEAYGKAIPPAPPAPPLTLSKDLTASMSVEEGAALTLSVTATGGTGPYTYAWTKDGSPIPDASGATYTKPTAAAEDAGSYKVTVTDSKQVSKDSTTCAVTVNPTVPGG
11.49
